Readings of Kd for the listed binders
measurement-target: GABARAP (residues 1-117 of human GABARAP) (human, UniProt O95166 1-117)
Sequence (O95166 whole entry, the tested form may be a part): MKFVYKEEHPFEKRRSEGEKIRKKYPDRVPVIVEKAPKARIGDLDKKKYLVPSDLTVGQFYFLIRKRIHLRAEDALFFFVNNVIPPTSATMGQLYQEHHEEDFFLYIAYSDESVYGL
assay-method-text: ITC
details: both partners purified

Incoming: For the binder shown here, RLRFSDFYNVGEFPYRVGLG [NSs2 (residues 53-72 of RVFV NSs)] , give the reported Kd.
Outgoing: > 100 µM

Now look at this entry.
Incoming: Name the reported Kd value associated with the binder DYFPVISVDLQSGRR [NSs1 (residues 2-16 of RVFV NSs)]
Outgoing: > 100 µM
